Please respond with reported IC50 for every item in the list.
target: TNIK (Homo sapiens (Human)); assay: TNIK enzymatic assay (radiometric kinase inhibition); type: biochemical; settings: read-out: TNIK_IC50

Worked examples follow.
>>> reading("O=C(Nc1ccccc1F)c1ccc(-c2c(-c3cccnc3)ncn2C2CCCC2)o1 [Compound 92]")
"0.0932 µM"
>>> reading("Cc1cccc(C)c1NC(=O)c1ccc(-c2c(-c3ccc(F)cc3)ncn2C2CCCC2)o1 [Compound 21]")
"0.214 µM"
>>> reading("O=C(Nc1cc[nH]c(=O)c1)c1ccc(-c2c(-c3ccc(F)cc3)ncn2C2COCC2(F)F)o1 (stereo not shown) [Compound A-42]")
"0.124 µM"
>>> reading("Cc1ccccc1NC(=O)c1ccc(-c2c(-c3ccc(F)cc3)ncn2C2CCCCC2)o1 [Compound 65]")
"0.152 µM"

For every item below, please supply its IC50.
1. CCOC(=O)c1ccc(NC(=O)c2ccc(-c3c(-c4ccc(F)cc4)ncn3C3CCCC3)o2)cc1 [Compound 33]
2. Cc1cccc(C)c1NC(=O)c1ccc(-c2c(-c3ccc(F)cc3)ncn2C2CCCCC2)o1 [Compound 60]
3. O=C(Nc1ccncc1F)c1ccc(-c2c(-c3ccc(F)cc3)ncn2[C@@H]2CCC[C@H]2O)o1 (racemic) [Compound A-60]
4. Cc1ccc(NC(=O)c2ccc(-c3c(-c4ccc(F)cc4)ncn3C3CCCC3)o2)cc1F [Compound 40]
5. O=C(Nc1cc(F)ccc1F)c1ccc(-c2c(-c3ccc(F)cc3)ncn2C2CCCC2)o1 [Compound 3]
6. CC(C)c1ccc(NC(=O)c2ccc(-c3c(-c4ccc(F)cc4)ncn3C3CCCCC3)o2)cc1 [Compound 73]

["0.027 µM", "0.874 µM", "0.457 µM", "0.102 µM", "0.00382 µM", "0.048 µM"]

====

molecular target: TNIK (Homo sapiens (Human), UniProt Q9UKE5); experiment: TNIK enzymatic assay (radiometric kinase inhibition); type: biochemical; settings: TNIK enzymatic assay, Table 1; read-out: IC50
Sequence (Q9UKE5 whole entry): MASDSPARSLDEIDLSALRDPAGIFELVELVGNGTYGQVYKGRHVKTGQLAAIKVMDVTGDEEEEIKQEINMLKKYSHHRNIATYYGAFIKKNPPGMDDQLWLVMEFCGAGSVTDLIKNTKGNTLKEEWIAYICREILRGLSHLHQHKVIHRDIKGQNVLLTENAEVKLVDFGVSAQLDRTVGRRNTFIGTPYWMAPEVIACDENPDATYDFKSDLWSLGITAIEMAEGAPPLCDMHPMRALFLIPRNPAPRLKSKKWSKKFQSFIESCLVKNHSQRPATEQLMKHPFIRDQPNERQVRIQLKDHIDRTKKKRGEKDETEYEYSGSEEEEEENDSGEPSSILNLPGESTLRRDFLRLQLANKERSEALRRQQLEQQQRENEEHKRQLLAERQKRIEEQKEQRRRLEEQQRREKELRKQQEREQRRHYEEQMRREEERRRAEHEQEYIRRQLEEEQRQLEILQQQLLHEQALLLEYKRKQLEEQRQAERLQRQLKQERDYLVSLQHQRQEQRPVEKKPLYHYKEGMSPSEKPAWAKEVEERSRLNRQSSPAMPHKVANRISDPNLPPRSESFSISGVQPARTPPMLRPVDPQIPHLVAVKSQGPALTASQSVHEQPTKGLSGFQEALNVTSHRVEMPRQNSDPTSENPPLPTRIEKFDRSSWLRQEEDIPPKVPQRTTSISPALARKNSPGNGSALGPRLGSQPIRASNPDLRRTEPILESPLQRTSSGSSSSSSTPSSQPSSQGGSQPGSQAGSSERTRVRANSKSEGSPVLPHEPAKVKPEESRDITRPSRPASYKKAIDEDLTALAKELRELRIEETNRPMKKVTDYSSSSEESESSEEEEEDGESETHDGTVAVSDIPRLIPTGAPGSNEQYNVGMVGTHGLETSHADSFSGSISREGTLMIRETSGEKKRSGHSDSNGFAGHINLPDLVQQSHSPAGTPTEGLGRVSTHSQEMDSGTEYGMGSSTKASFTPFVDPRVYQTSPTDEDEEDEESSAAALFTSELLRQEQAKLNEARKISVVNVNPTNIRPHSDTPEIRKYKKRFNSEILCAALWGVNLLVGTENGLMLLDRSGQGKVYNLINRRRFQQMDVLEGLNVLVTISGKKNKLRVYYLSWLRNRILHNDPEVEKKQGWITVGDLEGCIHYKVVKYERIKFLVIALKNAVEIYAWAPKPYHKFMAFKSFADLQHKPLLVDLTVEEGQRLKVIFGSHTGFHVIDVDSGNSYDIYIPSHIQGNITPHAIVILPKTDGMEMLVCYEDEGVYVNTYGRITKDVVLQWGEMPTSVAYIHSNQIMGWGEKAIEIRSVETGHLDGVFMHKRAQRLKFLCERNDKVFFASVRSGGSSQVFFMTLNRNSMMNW
MEASURED PROPERTY: pIC50
Give bare numbers, as −log10 of the molar value.

>>> reading("Cc1ccc(NC(=O)c2ccc(-c3c(-c4ccc(F)cc4)ncn3C3CCCC3)o2)c(C)c1")
7.92
>>> reading("Cc1cccc(NC(=O)c2ccc(-c3c(-c4ccc(F)cc4)ncn3C3CCCC3)o2)c1C")
6.87
>>> reading("O=C(Nc1ccccc1F)c1ccc(-c2c(-c3ccc(F)cc3)ncn2CC2CCOC2)o1 (centres unmarked)")
7.43
>>> reading("Cc1ccc(NC(=O)c2ccc(-c3c(-c4ccc(F)cc4)ncn3C3CCCCC3)o2)cc1Cl")
6.27
>>> reading("COc1ccc(NC(=O)c2ccc(-c3c(-c4ccc(F)cc4)ncn3C3CCCCC3)o2)cc1")
7.22

For every item below, please supply its pIC50.
1. CC(=O)c1cccc(NC(=O)c2ccc(-c3c(-c4ccc(F)cc4)ncn3C3CCCCC3)o2)c1
2. Cc1cccc(NC(=O)c2ccc(-c3c(-c4ccc(F)cc4)ncn3C3CCCCC3)o2)c1C
3. COc1ccc(NC(=O)c2ccc(-c3c(-c4ccc(F)cc4)ncn3C3CCCC3)o2)cc1Cl

6.82
6.25
6.78

====

molecular target: TNIK (Homo sapiens (Human)); test: TNIK enzymatic assay (radiometric kinase inhibition); format: biochemical; settings: TNIK enzymatic assay, Table 1; read-out: IC50
MEASURED PROPERTY: pIC50
Give bare numbers, as −log10 of the molar value.

>>> reading("Cc1cccc(C)c1NC(=O)c1ccc(-c2c(-c3ccc(F)cc3)ncn2C2CCCCC2)o1 [Compound 60]")
6.06
>>> reading("O=C(Nc1ccc(Cl)cc1F)c1ccc(-c2c(-c3ccc(F)cc3)ncn2C2CCCC2)o1 [Compound 42]")
7.72
>>> reading("O=C(Nc1ccccc1F)c1ccc(-c2c(-c3ccc(F)cc3)ncn2C2CCNC2)o1 (centres unmarked) [Compound 85]")
6.60
>>> reading("O=C(Nc1cccc(F)c1)c1ccc(-c2c(-c3ccc(F)cc3)ncn2C2CCCCC2)o1 [Compound 63]")
6.97
>>> reading("CC(=O)c1cccc(NC(=O)c2ccc(-c3c(-c4ccc(F)cc4)ncn3C3CCCC3)o2)c1 [Compound 35]")
6.82
>>> reading("O=C(Nc1ccc(Cl)cc1F)c1ccc(-c2c(-c3ccc(F)cc3)ncn2C2CCCCC2)o1 [Compound 76]")
7.38
>>> reading("O=C(Nc1ccccc1F)c1ccc(-c2c(-c3ccc(F)cc3)ncn2C2CCOC2)o1 (centres unmarked) [Compound 86]")
7.60
>>> reading("COc1cc(NC(=O)c2ccc(-c3c(-c4ccc(F)cc4)ncn3C3CCCC3)o2)cc(OC)c1 [Compound 19]")
6.64
>>> reading("Cc1ccccc1NC(=O)c1ccc(-c2c(-c3ccc(F)cc3)ncn2C2CCCCC2)o1 [Compound 65]")
6.82
>>> reading("O=C(Nc1ccc(Cl)cc1)c1ccc(-c2c(-c3ccc(F)cc3)ncn2C2CCCCC2)o1 [Compound 56]")
7.00

For every item below, please supply its pIC50.
1. CCOc1ccc(NC(=O)c2ccc(-c3c(-c4ccc(F)cc4)ncn3C3CCCC3)o2)cc1 [Compound 28]
2. Cc1cc(F)ccc1NC(=O)c1ccc(-c2c(-c3ccc(F)cc3)ncn2C2CCCC2)o1 [Compound 43]
3. COc1cccc(NC(=O)c2ccc(-c3c(-c4ccc(C)cc4)ncn3C3CCCCC3)o2)c1 [Compound 4]
4. CC(=O)Nc1ccc(NC(=O)c2ccc(-c3c(-c4ccc(F)cc4)ncn3C3CCCC3)o2)cc1 [Compound 46]
5. COc1cc(NC(=O)c2ccc(-c3c(-c4ccc(C)cc4)ncn3C3CCCCC3)o2)cc(OC)c1 [Compound 6]
6. COc1cccc(NC(=O)c2ccc(-c3c(-c4ccc(F)cc4)ncn3C3CCCCC3)o2)c1 [Compound 53]
7. O=C(Nc1ccc(Br)cc1)c1ccc(-c2c(-c3ccc(F)cc3)ncn2C2CCCC2)o1 [Compound 49]
8. Cc1cc(Cl)ccc1NC(=O)c1ccc(-c2c(-c3ccc(F)cc3)ncn2C2CCCC2)o1 [Compound 16]

1: 7.43; 2: 6.76; 3: 5.03; 4: 7.62; 5: 5.01; 6: 6.86; 7: 6.82; 8: 7.42

For every item below, please supply its pIC50.
1. O=C(Nc1ccccc1F)c1ccc(-c2c(-c3ccc(F)nc3)ncn2C2CCCC2)o1 [Compound 93]
2. CCOC(=O)c1cccc(NC(=O)c2ccc(-c3c(-c4ccc(F)cc4)ncn3C3CCCC3)o2)c1 [Compound 22]

7.44
6.32

For every item below, please supply its pIC50.
1. O=C(Nc1ccc(F)c(F)c1)c1ccc(-c2c(-c3ccc(F)cc3)ncn2C2CCCC2)o1 [Compound 41]
2. Cc1cccc(NC(=O)c2ccc(-c3c(-c4ccc(F)cc4)ncn3C3CCCC3)o2)c1 [Compound 48]
3. O=C(Nc1ccccc1Cl)c1ccc(-c2c(-c3ccc(F)cc3)ncn2C2CCCCC2)o1 [Compound 55]
4. Cc1ccc(NC(=O)c2ccc(-c3c(-c4ccc(F)cc4)ncn3C3CCCCC3)o2)c(C)c1 [Compound 67]

[6.74, 7.40, 7.62, 7.11]

For every item below, please supply its pIC50.
1. CC(C)c1ccc(NC(=O)c2ccc(-c3c(-c4ccc(F)cc4)ncn3C3CCCCC3)o2)cc1 [Compound 73]
2. CCc1ccccc1NC(=O)c1ccc(-c2c(-c3ccc(F)cc3)ncn2C2CCCCC2)o1 [Compound 61]
3. CCc1cccc(NC(=O)c2ccc(-c3c(-c4ccc(F)cc4)ncn3C3CCCC3)o2)c1 [Compound 39]
4. COc1cc(NC(=O)c2ccc(-c3c(-c4ccc(F)cc4)ncn3C3CCCCC3)o2)cc(OC)c1 [Compound 58]
5. CC(=O)Nc1ccc(NC(=O)c2ccc(-c3c(-c4ccc(F)cc4)ncn3C3CCCCC3)o2)cc1 [Compound 78]

1: 7.32; 2: 6.79; 3: 6.32; 4: 6.56; 5: 7.82

====

target: TNIK (Homo sapiens (Human), UniProt Q9UKE5); assay: TNIK enzymatic assay (radiometric kinase inhibition); assay type: biochemical; conditions: read-out: TNIK_IC50
Please respond with reported pIC50 for every item in the list.
Numbers only, as −log10 of the molar value.

Worked examples follow.
>>> reading("O=C(Nc1ccncc1F)c1ccc(-c2c(-c3ccc(F)cc3)ncn2C2COCC2F)o1 (stereo not shown)")
6.72
>>> reading("Cc1ccc(-c2ncn(C3CCCCC3)c2-c2ccc(C(=O)Nc3ccccc3F)o2)cc1")
5.82
>>> reading("COc1cccc(NC(=O)c2ccc(-c3c(-c4ccc(F)cc4)ncn3C3CCCC3)o2)c1")
7.00
>>> reading("O=C(Nc1ccc(Br)cc1)c1ccc(-c2c(-c3ccc(F)cc3)ncn2C2CCCC2)o1")
6.82
>>> reading("COc1cccc(NC(=O)c2ccc(-c3c(-c4ccc(F)cc4)ncn3C3CCCCC3)o2)c1")
6.86
>>> reading("CC(=O)c1cccc(NC(=O)c2ccc(-c3c(-c4ccc(F)cc4)ncn3C3CCCC3)o2)c1")
6.82
>>> reading("Cc1cc(NC(=O)c2ccc(-c3c(-c4ccc(F)cc4)ncn3C3COC3)o2)c(F)cn1")
7.30
>>> reading("Cc1ccc(NC(=O)c2ccc(-c3c(-c4ccc(F)cc4)ncn3C3CCCCC3)o2)c(C)c1")
7.11
>>> reading("Cc1cc(Cl)ccc1NC(=O)c1ccc(-c2c(-c3ccc(F)cc3)ncn2C2CCCC2)o1")
7.42
>>> reading("CSc1cccc(NC(=O)c2ccc(-c3c(-c4ccc(F)cc4)ncn3C3CCCCC3)o2)c1")
6.62

For every item below, please supply its pIC50.
1. COc1ccc(NC(=O)c2ccc(-c3c(-c4ccc(F)cc4)ncn3C3CCCC3)o2)cc1OC
2. O=C(Nc1cc[nH]c(=O)c1)c1ccc(-c2c(-c3ccc(F)cc3)ncn2C2COC2)o1
3. COc1ccc(OC)c(NC(=O)c2ccc(-c3c(-c4ccc(F)cc4)ncn3C3CCCC3)o2)c1
4. COc1cc(NC(=O)c2ccc(-c3c(-c4ccc(F)cc4)ncn3C3CCCC3)o2)cc(OC)c1
5. O=C(Nc1ccncc1F)c1ccc(-c2c(-c3ccc(F)cc3)ncn2CC2CCOC2)o1 (stereo not shown)
6. CC(=O)Nc1ccc(NC(=O)c2ccc(-c3c(-c4ccc(F)cc4)ncn3C3CCCCC3)o2)cc1
7. O=C(Nc1ccncn1)c1ccc(-c2c(-c3ccc(F)cc3)ncn2C2COCC2(F)F)o1 (stereo not shown)
8. Cc1cccc(NC(=O)c2ccc(-c3c(-c4ccc(F)cc4)ncn3C3CCCC3)o2)c1C

[7.38, 5.27, 8.51, 6.64, 7.08, 7.82, 7.58, 6.87]
